experiment: sensitometry: change in speed and practical density point versus control; settings: Table I; 0.5 mmol/Ag mol isothiourea; change versus control without isothiourea
Recorded Delta Log Speed by entry

# Molecule, Delta Log Speed
measured = [
    ("CCCCCCSCCSC(=N)N", -0.01),
    ("N=C(N)SCCSc1ccccc1", -0.01),
    ("N=C(N)SCCSCc1ccccc1", -0.03),
    ("CCCCCCCCCCSCCSC(=N)N", -0.03),
    ("CCCCCCSCCCSC(=N)N", -0.02),
    ("CCCCCCCCCCSCCCSC(=N)N", -0.01),
]

Task item: Fill in the blank: the reported Delta Log Speed of "CCCCSCCSC(=N)N" is ____.
Reply: -0.01

Task item: Fill in the blank: the reported Delta Log Speed of CCCCCCCCCCCCSC(=N)N [B, reference compound] is ____.
Reply: -0.02

Task item: Fill in the blank: the reported Delta Log Speed of CCCCCCCCSC(=N)N [Compound A, reference compound] is ____.
Reply: -0.02
